# assay_details: Components of the Cytosolic LPS Sensing Pathway: Gene Identification via Genome-wide siRNA Screen
# condition_description: RAW264.7 macrophages, IL-1a HTRF, actives lie on both sides, screened at 100 nM (by protocol), cells primed 5 h with Pam3CSK4 first
Among all 53,000 sequences or so, about 3,700 (7%) were called active. The entries come from a sample that favours actives as a whole.
Where z-score equals or exceeds 0.08, the correct label is Fulfilled; where it does not, the label is Not fulfilled.

For orientation, consider the following solved cases.
[
  {
    "sequence": "GCGCAAUAAGAUCUUCAUGTT against Ddx55",
    "classification": "Fulfilled"
  },
  {
    "sequence": "GGACAUAAGAGAAUGGUCATT against Lpp",
    "classification": "Fulfilled"
  },
  {
    "sequence": "GGAACAUUUGAAGUGCAAATT against Ilf2",
    "classification": "Not fulfilled"
  }
]

**Query** Does the reported z-score for GCUUUGUUGCCCUACUACCTT against Pacrg fall at or above the 0.08 mark?
**Result** Not fulfilled

**Query** Decide: z-score of GGAGAAGGAGCUGGAAACGTT against Cttn >= 0.08?
**Result** Fulfilled

**Query** Is z-score for GGUACGGUGUUUUGGAUACTT against Fam174a at or above 0.08?
**Result** Not fulfilled

**Query** z-score >= 0.08 for GGGUAUGGUUUCAUCACUUTT against Boll ?
**Result** Not fulfilled

**Query** Can CAAUGACAGCAGAUGACGUTT against Crabp2 be said to have z-score at or above 0.08?
**Result** Fulfilled

* * *

# assay_details: Components of the Cytosolic LPS Sensing Pathway: Gene Identification via Genome-wide siRNA Screen;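 also: robust z of the log signal after scaling to non-targeting control siRNA wells of the plate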
# condition_description: RAW264.7 macrophages, IL-1a HTRF, actives lie on both sides, screened at 100 nM (by protocol), cells primed 5 h with Pam3CSK4 first
Hit rate of the full screen: of about 53,000 sequences, about 3,700 (7%) were called active.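 How the source made its calls: active means gene knockdowns whose robust z-score for IL-1 alpha signal is at least 2 or at most -2, so actives lie on both sides; inactive means the rest.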 Only a selection was taken, and actives are over-represented in it overall.
Hello, when you answer, please use one of the following outcomes: true (active), false (inactive)

[
  {
    "sequence": "GGACAACACCCUGAUGAUATT against Vmn1r208",
    "classification": "false"
  },
  {
    "sequence": "GCUAUCUAGAGCCAAGAGCTT against Bahcc1",
    "classification": "true"
  },
  {
    "sequence": "GCUAACCAGUGAUCCUACATT against Olfr846",
    "classification": "false"
  },
  {
    "sequence": "GGGUUUCCUACAGAGUACCTT against Amer3",
    "classification": "false"
  },
  {
    "sequence": "CCCUUGUCUAAAAUAUACATT against Zfp941",
    "classification": "false"
  },
  {
    "sequence": "GCUGGGAUAUGAAAUCUAUTT against Gprc6a",
    "classification": "true"
  },
  {
    "sequence": "GGACCAAUGUUUUCUUCCUTT against Gngt2",
    "classification": "false"
  },
  {
    "sequence": "GGAACUAAAUCUUCCAUCCTT against Chit1",
    "classification": "false"
  },
  {
    "sequence": "AUGUGGCAAAACCUUUGCATT against Zfp960",
    "classification": "false"
  },
  {
    "sequence": "GGAGUAGUAGCUGAAUUUGTT against Abcc3",
    "classification": "false"
  }
]

**Query** Please let me know the test result on file for GUUGGUUUGUUGACCUCUUTT against Arap2 .
**Result** false

**Query** What is the recorded call for this sequence in the test? GGAAUUCUACCUGAAAAUCTT against Arel1
**Result** false

**Query** Query: recorded result category for GCGCGUCAUAAAAAGCAUATT against Lhx6 in this test
**Result** false

* * *

# assay_details: Components of the Cytosolic LPS Sensing Pathway: Gene Identification via Genome-wide siRNA Screen;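 also: robust z of the log signal after scaling to non-targeting control siRNA wells of the plate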
# condition_description: RAW264.7 macrophages, IL-1a HTRF, actives lie on both sides, screened at 100 nM (by protocol), cells primed 5 h with Pam3CSK4 first
# Description: Non-canonical inflammasome activation by cytosolic LPS is a critical component of the host response to Gram-negative bacterial infection, however we lack a comprehensive understanding of the cellular processes that control this pathway. […] Lipofectamine RNAiMAX Transfection Reagent ([…]; Invitrogen) was added in […] serum-free, antibiotic-free media to plate wells using a Thermo Scientific Matrix WellMate and Microplate Stacker. […] The plates were read on an EnVision plate reader (PerkinElmer). […]
Among all 53,000 sequences or so, about 3,700 (7%) were called active. Only a selection was taken, and actives are over-represented in it overall.
measured_endpoint: z-score
Number, no unit, nothing else.

[
  {
    "sequence": "GGUCUGGAAUGGAGAACAGTT against Suox",
    "z-score": 2.73
  },
  {
    "sequence": "GGAAAUGUUUAUCACGGUUTT against Scube2",
    "z-score": 2.05
  },
  {
    "sequence": "GCCCUACCAAAAGGAUGAUTT against Cfap300",
    "z-score": -2.02
  },
  {
    "sequence": "GGCACUCCCUAAUGAACUCTT against Adck5",
    "z-score": 1.42
  },
  {
    "sequence": "GGGAUUGAGGGAGAUUUUCTT against Tedc2",
    "z-score": -0.206
  }
]

Now turn to the next sequence.
**Query** Can you share its z-score? I mean this sequence: GCCAGACUGAGCUACAAAATT against Gm9732
**Result** -1.3

* * *

# assay_details: Components of the Cytosolic LPS Sensing Pathway: Gene Identification via Genome-wide siRNA Screen;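 also: robust z of the log signal after scaling to non-targeting control siRNA wells of the plate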
# condition_description: RAW264.7 macrophages, IL-1a HTRF, actives lie on both sides, screened at 100 nM (by protocol), cells primed 5 h with Pam3CSK4 first
The whole screen tested about 53,000 sequences, of which about 3,700 (7%) were called active. Many of the other results were omitted from the sample, so actives are more common in it than they were.
Classification by z-score follows these ranges: low bin: < -0.6; mid bin: ≥ -0.6 and < 0.7; high bin: ≥ 0.7

For orientation, consider the following solved cases.
[
  {
    "sequence": "GGAUGAAGAGCAUAACAGUTT against Sft2d2",
    "classification": "low bin"
  },
  {
    "sequence": "GCCAAGAAUAGCAUUACUGTT against Abraxas1",
    "classification": "low bin"
  },
  {
    "sequence": "CGUGGACAUCGAUAUCACCTT against Slc26a8",
    "classification": "low bin"
  },
  {
    "sequence": "GGAACGUACAGGAUAAUCUTT against Krt79",
    "classification": "high bin"
  },
  {
    "sequence": "GGAGCCAGAACCUGAAAUUTT against Ankrd1",
    "classification": "high bin"
  },
  {
    "sequence": "GGCACAAGAGCAAAGGCUUTT against Gmppb",
    "classification": "mid bin"
  },
  {
    "sequence": "CCUUUCUUGUGUUUACAGGTT against P2ry6",
    "classification": "mid bin"
  },
  {
    "sequence": "GCCAGUUAUCACUUAACCCTT against Cmc1",
    "classification": "mid bin"
  }
]

**Query** For this sequence, which bin applies? GGGUGCUGUCAACAUAUGATT against Gabrq
**Result** mid bin

**Query** Any idea which band CGUUUCUCAGCAAACUUACTT against Il17a is in?
**Result** mid bin

**Query** // bin(item) where item = GGUAUAAGGUCAUAGAAUUTT against E230016K23Rik
**Result** mid bin

* * *

# assay_details: Components of the Cytosolic LPS Sensing Pathway: Gene Identification via Genome-wide siRNA Screen;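 also: robust z of the log signal after scaling to non-targeting control siRNA wells of the plate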
# condition_description: RAW264.7 macrophages, IL-1a HTRF, actives lie on both sides, screened at 100 nM (by protocol), cells primed 5 h with Pam3CSK4 first
Screen size: about 53,000 sequences; about 3,700 (7%) were called active. This excerpt belongs to a sample that is enriched for actives.
We use -0.9 as the dividing line for z-score: on or above the line is Condition met, below is Condition not met.

Consider the following illustrative entries.
[
  {
    "sequence": "GCUCUGCAUGACCUUACCUTT against Ugt2b1",
    "classification": "Condition met"
  },
  {
    "sequence": "GGCCAUAUUUGUGACUGUGTT against Hao1",
    "classification": "Condition not met"
  },
  {
    "sequence": "GGAGGGUCGGCUUAUAAUUTT against Adam6b",
    "classification": "Condition met"
  }
]

**Query** Test whether the sequence GGAUGAAGACCCAUAUGUGTT against Ap1b1 records z-score of -0.9 or higher.
**Result** Condition met

**Query** Does the sequence GCUCAGGAAUUUGACACCATT against Adgrl3 have recorded z-score that is -0.9 or more?
**Result** Condition not met

**Query** Would you say CGUUAGCAUCAGGUCAAGUTT against Zfp251 shows z-score at minimum -0.9?
**Result** Condition met

**Query** Assess whether reported z-score for GGUGCAUUUUGUCUAUGAUTT against Lamp5 sits at -0.9 or higher.
**Result** Condition not met

**Query** Given the entry GCUGUUCAAUUUGAUUACUTT against Dapp1 , answer whether its z-score meets or surpasses -0.9.
**Result** Condition met

**Query** Please indicate if the recorded z-score for GGUGAGAUUACUGAAAGAATT against Plod2 meets or exceeds -0.9.
**Result** Condition met

**Query** # check: z-score of GCUCAUAAUUACAUCACCATT against H3c15 is greater than or equal to -0.9
**Result** Condition not met

**Query** Kindly determine if z-score recorded for GGAAACAUCUUGUUGAAGATT against BC106179 is above or exactly -0.9.
**Result** Condition met
